test system: K4 kissing-loop RNA reporter; test: apparent KD of K4 kissing-loop reporter; higher = weaker reporter binding; details: Eterna round: R107; input ligand: FMN 200 uM;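 also: bound reporter read as fluorescence of individual clusters on recovered sequencing chips by microscopy, with normalized cluster intensities fitted with a binding model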
quantity-kind: apparent KD of K4 kissing-loop reporter (nM)

>>> quantitative_readout("AGAGCGGUCGAAGGAUAUGAGACAACCAACGGUGAGUGAUGUUUGCCGAGUAAACCUCUAGUUGCGUCAGAAGGUCGGCUCAGUC [theeternabot_sameState_KL_FMN_B_25]")
595
>>> quantitative_readout("AAGUAGCUCUCGGCCGCCACUCCUCAGUGAUGUUGAGAUAUUAAUUGCCAAUUGGCGUAUUUAAAGAGGACCGGGAGAGCUACAA [AK3 SS Tryptophan B]")
368
>>> quantitative_readout("CCAUCCGAGUCGGCCGCCACUUUGAGUGAUGUUUGGAGUCUGAGUCAACAUAAAUACUUAGUUUAAAGGACCGGGACUUCGGAUG [theeternabot_exclusion_KL_Trp_B_7]")
773
>>> quantitative_readout("GGCUUGCCAGUGAUGUUGGCAUAAACUGAAGGAGCGCGUGAAAACGCAGGUAGGUCGCAGAACCUUGCCAACUAUUUUAUUUGCC [Ex Arginine A K4 24]")
192
>>> quantitative_readout("UAAGAGUCUCUGCAAUUAGCAGAGACUCAACGAGGACCGGUACGGCCGCCACUCGGGUCCUAGAGUGAUGUUCUAAUAAUAUAAU [AK1.1 SS Tryptophan A]")
273
>>> quantitative_readout("UGUCAUUGGUCUGAUACCAGUCCCUUGGCAGCCAAAUGGAGUGAUGUUCCAAGGAUACCAGACCCUUGGCAGCAGACCGAUGACU [TheoBS 26 #DoubleAptamer #SwitchBubble]")
556
